Assay: In vivo pharmacokinetic and bioavailability experiments of rats
Design: species or system SD rats
Conditions: Sprague-Dawley, rat, plasma; SD rats, iv, 5 mg/kg single dose; read-out: Cmax
OBSERVED PROPERTY: Cmax (ng/mL)

# MOLECULE, ASSAY RESULT
measured = [
    ("CCc1ccc2c(c1)c(=O)c(C(=O)Nc1ccc(Oc3ncnc4cc(OCCCN5CCN(C)CC5)c(OC)cc34)c(F)c1)c(C)n2C", 3560),
    ("COc1cc2ncnc(Oc3ccc(NC(=O)c4cn(-c5ccc(F)cc5)c5cc(N6CCNCC6)c(F)cc5c4=O)cc3F)c2cc1OC", 885),
    ("CCc1ccc2c(c1)c(=O)c(C(=O)Nc1ccc(Oc3ncnc4cc(OC)c(OC)cc34)c(F)c1)c(C)n2C", 1170),
    ("CCc1ccc2c(c1)c(=O)c(C(=O)Nc1ccc(Oc3ncnc4cc(OCCN5CCCC5)c(OC)cc34)c(F)c1)c(C)n2C", 13300),
]

I. CCc1ccc2c(c1)c(=O)c(C(=O)Nc1ccc(Oc3ncnc4cc(OCCN(C)C)c(OC)cc34)c(F)c1)c(C)n2C
II. COc1cc2ncnc(Oc3ccc(NC(=O)c4cn5c6c(c(N7CCN(C)CC7)c(F)cc6c4=O)OCN5C)cc3F)c2cc1OC
III. CCc1ccc2c(c1)c(=O)c(C(=O)Nc1ccc(Oc3ncnc4cc(OCCCN5CCOCC5)c(OC)cc34)c(F)c1)c(C)n2C
IV. COc1cc2ncnc(Oc3ccc(NC(=O)c4cn5c6c(c(N7CCC(O)CC7)c(F)cc6c4=O)CCC5C)cc3F)c2cc1OC (centres unmarked)
Arrange these molecules by their Cmax, starting with the largest number. Sort and list the labels as requested. I, III, IV, II

----------
Molecular target: AXL kinase (Homo sapiens, UniProt P30530)
Sequence (P30530 26-894): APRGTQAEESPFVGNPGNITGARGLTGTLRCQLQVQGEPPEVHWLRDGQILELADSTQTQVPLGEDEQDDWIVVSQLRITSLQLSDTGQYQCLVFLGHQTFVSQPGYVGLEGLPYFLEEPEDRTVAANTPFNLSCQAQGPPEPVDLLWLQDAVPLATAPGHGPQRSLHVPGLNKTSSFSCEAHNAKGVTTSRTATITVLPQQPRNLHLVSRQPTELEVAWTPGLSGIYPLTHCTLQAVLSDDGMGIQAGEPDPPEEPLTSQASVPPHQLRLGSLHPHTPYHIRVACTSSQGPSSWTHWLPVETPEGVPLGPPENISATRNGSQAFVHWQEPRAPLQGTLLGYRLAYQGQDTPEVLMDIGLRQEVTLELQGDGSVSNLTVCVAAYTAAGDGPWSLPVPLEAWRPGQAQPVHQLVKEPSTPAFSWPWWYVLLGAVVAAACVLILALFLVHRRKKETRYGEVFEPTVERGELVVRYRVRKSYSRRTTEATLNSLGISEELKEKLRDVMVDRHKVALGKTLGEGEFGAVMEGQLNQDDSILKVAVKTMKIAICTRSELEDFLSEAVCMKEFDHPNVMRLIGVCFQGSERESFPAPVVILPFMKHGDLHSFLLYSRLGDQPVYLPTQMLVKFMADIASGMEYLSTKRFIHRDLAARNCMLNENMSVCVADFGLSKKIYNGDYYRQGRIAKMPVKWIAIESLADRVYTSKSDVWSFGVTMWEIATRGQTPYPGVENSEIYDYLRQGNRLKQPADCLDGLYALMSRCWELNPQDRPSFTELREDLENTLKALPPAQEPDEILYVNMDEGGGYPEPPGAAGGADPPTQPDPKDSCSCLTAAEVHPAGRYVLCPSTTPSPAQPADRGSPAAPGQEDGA
OBSERVED PROPERTY: IC50 (nM)

Use these answered entries as a reference point.
# COMPOUND, TESTED TARGET, IC50 (nM)
rows = [
    ("Cc1ccc2c(c1)c(=O)c(C(=O)Nc1ccc(Oc3ncnc4[nH]cc(-c5ccccc5)c34)c(F)c1)c(-c1ccccc1)n2C [TL4800144]", "AXL kinase (Homo sapiens, UniProt P30530)", 78),
    ("CCc1ccc2c(c1)c(=O)c(C(=O)Nc1ccc(Oc3ncnc4cc(OCCN(C)C)c(OC)cc34)c(F)c1)c(C)n2C [GDL5000128]", "AXL kinase (Homo sapiens, UniProt P30530)", 6),
    ("CCN1CCN(c2cc3c(cc2F)c(=O)c(C(=O)Nc2ccc(Oc4ncnc5cc(OC)c(OC)cc45)c(F)c2)cn3C2CC2)CC1 [GDL5000093]", "AXL kinase (Homo sapiens, UniProt P30530)", 277),
    ("CCc1ccc2c(c1)c(=O)c(C(=O)Nc1ccc(Oc3ncnc4cc(OCCN5CCCC5)c(OC)cc34)c(F)c1)c(C)n2C [TL4830058]", "AXL kinase (Homo sapiens, UniProt P30530)", 8),
]

P. Cc1c(C(=O)Nc2ccc(Oc3ccnc4[nH]cc(-c5ccccc5)c34)c(F)c2)c(=O)c2cc(Cl)ccc2n1C [TL50128]
Q. CCCCn1c(C)c(C(=O)Nc2ccc(Oc3ncnc4[nH]cc(-c5ccccc5)c34)c(F)c2)c(=O)c2cc(C)ccc21 [TL4800080]
R. CCc1cc2c(=O)c(C(=O)Nc3ccc(Oc4ncnc5cc(OC)c(OC)cc45)c(F)c3)c(C)n(C)c2cc1N1CCN(C)CC1 [TL4830071]
S. CCc1ccc2c(c1)c(=O)c(C(=O)Nc1ccc(Oc3ncnc4[nH]cc(-c5ccccc5)c34)c(F)c1)c(CC)n2C [TL4830005]
Sequence the entries by IC50, beginning with the highest number. Provide the ranking by listing each label in its place in the requested order. Q, P, S, R
(Q: 476 nM, P: 211 nM, S: 23 nM, R: 14.8 nM)

I. CCc1ccc2c(c1)c(=O)c(C(=O)Nc1ccc(Oc3ncnc4cc(OCCCN5CCN(C)CC5)c(OC)cc34)c(F)c1)c(C)n2C [GDL5000138]
II. CCc1ccc2c(c1)c(=O)c(C(=O)Nc1ccc(Oc3ncnc4[nH]cc(-c5ccccc5)c34)c(C)c1)c(C)n2C [TL4830016]
Of I versus II , which is the one with smaller reported IC50? Refer to your chosen entry by its label in the reply. I
(I: 3 nM, II: 1120 nM)

I. COc1ccc2c(c1)c(=O)c(C(=O)Nc1ccc(Oc3ncnc4[nH]cc(-c5ccccc5)c34)c(F)c1)c(C)n2C [TL4800005]
II. Cc1ccc2[nH]c(C)c(C(=O)Nc3ccc(Oc4ncnc5[nH]cc(-c6ccccc6)c45)c(F)c3)c(=O)c2c1 [TL4800025]
III. CCc1ccc2c(c1)c(=O)c(C(=O)Nc1ccc(Oc3ncnc4cc(OC)c(OC)cc34)c(F)c1)c(CC)n2C [TL4830074]
IV. CCc1ccc2c(c1)c(=O)c(C(=O)Nc1ccc(Oc3ncnc4[nH]cc(-c5cnn(C)c5)c34)c(F)c1)c(C)n2C [GDL5000038]
// ranking: key=IC50, reverse=True Returns: the labels arranged in the requested order. II, I, IV, III
(II: 557 nM, I: 99 nM, IV: 34 nM, III: 9 nM)

----------
Molecular target: FLT-3 kinase domain recombinant protein (Homo sapiens)
Construct: 50 μL FLT-3 kinase domain recombinant protein diluted with reaction buffer to initiate the reaction
Sequence (P36888 610-943 limits assumed): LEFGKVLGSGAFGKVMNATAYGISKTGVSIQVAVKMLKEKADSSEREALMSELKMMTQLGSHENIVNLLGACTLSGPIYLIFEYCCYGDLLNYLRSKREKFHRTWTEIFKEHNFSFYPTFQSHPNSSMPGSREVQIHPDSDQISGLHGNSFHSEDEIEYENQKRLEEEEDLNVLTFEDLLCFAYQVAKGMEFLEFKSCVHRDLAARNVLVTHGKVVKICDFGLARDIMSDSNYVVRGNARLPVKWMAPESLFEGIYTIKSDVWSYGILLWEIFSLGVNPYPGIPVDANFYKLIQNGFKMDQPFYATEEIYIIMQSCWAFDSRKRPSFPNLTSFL
Assay: Inhibition rate on FLT3 kinase (ELISA)
Format: biochemical
Conditions: compound 1000 nM; two values per compound; 1 µM
OBSERVED PROPERTY: Inhibition rate (%) against receptor tyrosine kinase FLT-3

# MOLECULE, ASSAY RESULT
records = [
    ("Cc1c(C(=O)Nc2ccc(Oc3ncnc4[nH]cc(-c5ccccc5)c34)c(F)c2)c(=O)c2cc(C(C)(C)C)ccc2n1C", 79.1),
    ("CCc1ccc2c(c1)c(=O)c(C(=O)Nc1ccc(Oc3ccnc(N)c3Cl)c(F)c1)c(C)n2C", 82.3),
    ("CCc1ccc2c(c1)c(=O)c(C(=O)Nc1ccc(Oc3ncnc4[nH]cc(-c5cnn(C)c5)c34)c(F)c1)c(C)n2C", 95.9),
    ("COc1cc2ncnc(Oc3ccc(NC(=O)c4cn5c6c(cc(C)cc6c4=O)CCC5)cc3F)c2cc1OC", 68.5),
    ("Cc1c(C(=O)Nc2ccc(Oc3ncnc4[nH]cc(-c5ccccc5)c34)c(F)c2)c(=O)c2cc(C(C)C)ccc2n1C", 84.6),
    ("CCc1ccc2c(c1)c(=O)c(C(=O)Nc1ccc(Oc3ncnc4[nH]cc(-c5ccccc5)c34)c(F)c1)c(CC)n2C", 59.9),
    ("CCc1ccc2c(c1)c(=O)c(C(=O)Nc1ccc(Oc3ncnc4cc(OCCN5CCCC5)c(OC)cc34)c(F)c1)c(C)n2C", 92.3),
    ("CCc1ccc2c(c1)c(=O)c(C(=O)Nc1ccc(Oc3ncnc4cc(OC)c(OC)cc34)c(F)c1)c(C)n2C", 83.2),
    ("Cc1c(C(=O)Nc2ccc(Oc3ncnc4[nH]cc(-c5ccccc5)c34)c(F)c2)c(=O)c2cc(OC(F)(F)F)ccc2n1C", 74.1),
    ("CCc1ccc2c(c1)c(=O)c(C(=O)Nc1ccc(Oc3ncnc4[nH]cc(-c5ccc(OC)cc5)c34)c(F)c1)c(C)n2C", 91.6),
    ("Cc1c(C(=O)Nc2ccc(Oc3ncnc4[nH]cc(-c5ccccc5)c34)c(F)c2)c(=O)c2cc(C(F)(F)F)ccc2n1C", 77.6),
    ("COc1cc2ncnc(Oc3ccc(NC(=O)c4cn5c6c(c(N7CCC(O)CC7)c(F)cc6c4=O)CCC5C)cc3F)c2cc1OC (centres unmarked)", 76.4),
    ("Cc1c(C(=O)Nc2ccc(Oc3ncnc4[nH]cc(-c5ccccc5)c34)c(F)c2)c(=O)c2cc(F)ccc2n1C", 67.2),
    ("CCc1ccc2c(c1)c(=O)c(C(=O)Nc1ccc(Oc3ncnc4[nH]cc(-c5ccccc5)c34)c(C)c1)c(C)n2C", 70.1),
]
